- experimental_target: T1, human 4-1BB-His protein (human, UniProt Q07011 24-186)
- T1 construct: Recombinant His-tagged protein; also called human 4-1BB-his tag; recombinant 4-1BB protein; not shown: His tag
- method: SPR, Biacore T200, antibody captured on Protein A chip, human 4-1BB-His as analyte
measurement_label: koff (s⁻¹)

[
  {
    "binder": "B164 chimeric mAb (VHH, Alpaca VHH tested as 'chimeric mAb') VHH: EVQLVESGGGLVQAGGSLRLSCAASGSIFSYMFWYRQPQGKQREYVAHITSGGRTNYADSVTGRFTISRGNNDNTMYLQMNNLKPEDTAVYYCAADDAVYTDRTYWGQGTQVTVSS",
    "units_symbol": "s⁻¹",
    "measured_value": 0.000546
  }
]

P: B210 chimeric mAb (VHH, Alpaca VHH tested as 'chimeric mAb') VHH: EVQLVESGGGLVQPGGSLRLSCAASGLSLDYYAIGWFRQAPGKEREGVSCISSSGRSTNYADSVKGRFTISRDNAKNTVYLQMNSLKPEDTADYYCATDTTTRCPIWSNYVESDYWGQGTQVTVSS
Q: B125 chimeric mAb (VHH, Alpaca VHH tested as 'chimeric mAb') VHH: QVQLVESGGGLVQPGGSLRLSCAASGFAFSDYAIGWFRQAPGKEREGVSCISSSDGSTYYADSVKGRFTISRDNAKNTVYLQMNSLKPEDTAVYYCATDTTTRCPIWSYYVESDYWGQGTQVTVSS
-- ask Hi team, can someone confirm which has the larger koff: P or Q ? Thanks. Field: selected label. Fill in the label of the entry you choose.
-- reply Q

The reported numbers originate from patent US20240417482A1.
